Test: 39-week oral (gavage) toxicity/toxicokinetic study with 13-week treatment-free recovery period in cynomolgus monkeys
Type: in vivo, cynomolgus monkeys (Macaca fascicularis)
Settings: both sexes, cynomolgus monkey, oral; after 13‐week treatment‐free period; 50 mg/kg/day; all four recovery monkeys; perirenal white fat; read-out: obicetrapib in adipose tissue (below LLOQ), per g of fat
READOUT KIND: concentration at 13 weeks after last dose

- CCOC(=O)N1c2ccc(C(F)(F)F)cc2C(N(Cc2cc(C(F)(F)F)cc(C(F)(F)F)c2)c2ncc(OCCCC(=O)O)cn2)CC1CC (stereo not shown): < 10 ng/g

----------
Experiment: 39-week oral (gavage) toxicity/toxicokinetic study with 13-week treatment-free recovery period in cynomolgus monkeys
Assay type: in vivo, cynomolgus monkeys (Macaca fascicularis)
Conditions: female, cynomolgus monkey, plasma, po, 50 mg/kg/day, Day 1; 50 mg/kg/d; females; mean (SD); read-out: t ½ (elimination half‐life) (converted)
READOUT KIND: half-life (h)

• CCOC(=O)N1c2ccc(C(F)(F)F)cc2C(N(Cc2cc(C(F)(F)F)cc(C(F)(F)F)c2)c2ncc(OCCCC(=O)O)cn2)CC1CC (stereo not shown) [Obicetrapib] = 6.8
